This section presents binders with their documented FACS Binding Geomean values.
TARGET OR TEST SYSTEM: T1, human ASGR-1 mutant construct H203 (human, UniProt P07306 1-291)
T1 construct: Arg/Glu scanning: non-arginine residues were changed to arginine; Transiently expressed on CHO-S cells
T1 sequence: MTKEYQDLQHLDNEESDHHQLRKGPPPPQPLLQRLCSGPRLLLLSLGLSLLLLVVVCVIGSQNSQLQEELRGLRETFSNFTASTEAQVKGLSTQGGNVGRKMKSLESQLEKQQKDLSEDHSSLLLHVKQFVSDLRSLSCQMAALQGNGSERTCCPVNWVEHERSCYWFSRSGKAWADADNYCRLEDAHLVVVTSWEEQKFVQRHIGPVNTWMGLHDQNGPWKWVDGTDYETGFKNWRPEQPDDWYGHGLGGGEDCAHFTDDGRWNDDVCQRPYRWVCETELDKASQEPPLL
PROCEDURE TEXT: FACS, transfected CHO-S cells, mAb 5 ug/ml
The answer should be a number; do not append a unit.

Record excerpt, results attached:
BINDER	FACS Binding Geomean
53F7 (antibody, V domains shown, mAb) VH: QVQLVQSGAEVKKPGASVKVSCKASGYTFTGYHMHWVRQAPGQGLEWMGWINPNNNGTNYAQKFQGRVTMTRDTSISTAYMELNRLTSDDTAVYYCARDGTSSFDYWGQGTLVTVSS VL: DIQMSQSPSSVSASVGDRVTITCRASQGISRWLAWYQQKPGKAPNLLIYAASSLQSGVPSRFSGSGSGTDFTLTISSLQPEDFAIYYCQQANSFPFTFGPGTKVDIK	18100
45B4 (antibody, V domains shown, mAb) VH: QVQLVESGGGVVQPGRSLRLSCAASGFTFSDCVMHWVRQAPGKGLEWVAVIWYDGSNKYYADSVKGRFTISRDNSKNTLYLQMNSLRAEDTAVYYCARERYSSGLYDYGMDVWGQGTTVTVSS VL: DIQMTQSPSSLSASVGDRVTFTCRASQGIRDDLGWYQQKPGKAPKRLIYAASSLQSGVPSRFSGSGSGTEFTLTISSLQPEDFATYYCLQHYSYPRTFGQGTKVEIK	14000
191G10 (antibody, V domains shown, mAb) VH: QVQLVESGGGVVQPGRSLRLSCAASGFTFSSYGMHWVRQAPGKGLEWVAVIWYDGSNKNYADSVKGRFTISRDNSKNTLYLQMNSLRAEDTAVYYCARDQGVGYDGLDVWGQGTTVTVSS VL: DIQMTQSPSSLSASVGDRVTITCRTSQGIGKYLAWFQQKPGKAPKSLLYKVSSLQSGVPSKFSGSGSGTDFTLTISSLQPEDFATYYCQQYMTYPLTFGGGTKVEIK	17000
197G3 (antibody, V domains shown, mAb) VH: QVQLVESGGGVVQPGRSLRLSCVASGFTFSSHGMHWVRQAPGKGLEWVAVIWYDGSNKNYADSVKGRFTISRDNSKNTLYLQMNSLRAEDTAVYYCARDPSVGYDGMDVWGQGTTVTVSS VL: DIQMTQSPSSLSASVGDRVTITCRASQGIGNHLAWFQQKPGKAPKSLIYAASSLQSGVPSKFSGSRSGTDFSLTISSLQPEDFATYYCQQYSNYPVTFGPGTKVDIK	3500

Let us move to another entry and its FACS Binding Geomean.
The reported value for 10G6 (antibody, V domains shown, mAb) VH: QVQLVQSGAEVKKPGASVKVSCKASGYTFTAYHMHWVRQAPGQGLEWMGWINPNNNGTNYAQKFQGRVTMTRDTSISTAYMELSRLRSDDTAVYYCGRDVTSSFDYWGQGTLVTVSS VL: DIQMTQSPSSVSASVGDRVTITCRASQGISKWLAWYQQKPGKAPKILIYAAYSLQSGVPARFSGSGSGTDFTLTIRSLQPEDFATYYCQQANSFPFTFGPGTKVDIK in terms of FACS Binding Geomean is 18200

Values from patent US20190248902A1
